system: Trypanosoma brucei rhodesiense; experiment: Trypanocidal activity against bloodstream form of Trypanosoma brucei rhodesiense STIB900 infected in NMRI mouse assessed as decrease in parasitemia at 20 mg/kg, ip qd administered for 4 days measured once per week until 60 days by microscopic analysis; assay type: functional, organism-based; design: dose 20 mg/kg
Activity calls are given as the source filed them. The rule behind the calls is not given here.
Returns: one label drawn from active, inactive

Input: Status in this test for Cl.Cl.Cl.N=C(N)c1cccc(-c2cc(-c3ccc(C(=N)N)cc3Cl)on2)c1 ?
Output: active

Others:
Input: Status in this test for COc1ccc(C(=N)N)cc1-c1cc(-c2ccc(C(=N)N)cc2)no1.Cl.Cl ?
Output: active

Input: Status in this test for Cl.Cl.N=C(N)c1ccc(-c2cc(-c3cccc(C(=N)N)c3)no2)cc1 ?
Output: inactive

Input: Status in this test for COc1ccc(C(=N)N)cc1-c1cc(-c2ccc(C(=N)N)cc2)on1.Cl.Cl ?
Output: active
